# System: P12-Ichikawa
# test.description: cell viability relative to DMSO control; higher = less cytotoxic
# cond: HPLM + 10% dialyzed FBS; 48 h; 0.0211 µM
Measured cell viability values are reported for all entries that follow.

input.smiles: CC1=C(/C=C/C(C)=C/C=C/C(C)=C/C=C/C=C(C)/C=C/C=C(C)/C=C/C2=C(C)CCCC2(C)C)C(C)(C)CCC1
cell viability / %: 110
--
input.smiles: CC(C)(C)C(=O)Oc1ccc2c(c1)nc(NC(=O)c1cccc([N+](=O)[O-])c1)n2CCCO
cell viability / %: 119
--
input.smiles: C[C@H](O)[C@H]1[C@@H]2[C@H](C)C(=C(\N2C1=O)C(O)=O)/S[C@@H]3CN[C@H](CN[S+](N)([O-])=O)C3
cell viability / %: 129
--
input.smiles: C[C@]12CC[C@@H]3c4ccc(OC(=O)N(CCCl)CCCl)cc4CC[C@H]3[C@@H]1CC[C@@H]2OP(=O)([O-])[O-].[Na+].[Na+]
cell viability / %: 94.4
--
input.smiles: CC(=O)Oc1ccccc1C(=O)O
cell viability / %: 93.9

----------
# Tested on: NOMO1
# test.description: cell viability relative to DMSO control; higher = less cytotoxic
# cond: RPMI 5 mM glucose + 10% FBS; 48 h; 0.0211 µM
cell viability reference

compound: COC1=CC2=NC=CC(=C2C=C1)OC3=CN=C(NC(=O)C/4=C(C)/N(CC(C)(C)O)N(C4=O)C5=CC=CC=C5)C=C3
tested.on: NOMO1
output.unit: %
cell viability: 95
--
compound: CNC1CCC(N(Cc2cccc(-c3ccncc3)c2)C(=O)c2sc3ccccc3c2Cl)CC1 (stereo not drawn)
tested.on: NOMO1
output.unit: %
cell viability: 93
--
compound: CCC[C@H](NC(=O)/C(C#N)=C/c1cccc(Br)n1)c1ccccc1
tested.on: NOMO1
output.unit: %
cell viability: 111

----------
# Tested on: P12-Ichikawa
# test.description: cell viability relative to DMSO control; higher = less cytotoxic
# cond: HPLM + 10% dialyzed FBS; 48 h; 0.19 µM
Measured cell viability of individual entries
experimental.endpoint: cell viability (%)

molecule: Cc1c(CCOc2ccc(C(=O)O)cc2)c2cc(Cl)ccc2n1C(c1ccccc1)c1ccccc1
reported.measurement: 113

molecule: CC1=NN(c2ccc(C)c(C)c2)C(=O)/C1=N/Nc1cccc(-c2cccc(C(=O)O)c2)c1O
reported.measurement: 127

molecule: C=CC(=O)Nc1cccc(Oc2nc(Nc3ccc(N4CCN(C)CC4)cc3)ncc2Cl)c1
reported.measurement: 130

molecule: C[C@](O)(COc1ccc(C#N)cc1)C(=O)Nc1ccc(C#N)c(C(F)(F)F)c1
reported.measurement: 93.2

molecule: CC1=CC=CC=C1N2\C(=N/C3=C(C(=CC=C3)C)C2=O)C[N]4C=NC5=C4N=CN=C5N
reported.measurement: 118

molecule: CC(=O)O.Cc1c(-c2ccc(O)cc2)n(Cc2ccc(OCCN3CCCCCC3)cc2)c2ccc(O)cc12
reported.measurement: 111

molecule: Cc1cc(OCCCc2c(C(=O)O)n(Cc3cccnc3)c3c(-c4c(COc5ccc(N6CCN([S+](C)(=O)[O-])CC6)cc5)nn(C)c4C)cccc23)cc(C)c1Cl
reported.measurement: 97.4

molecule: CN(C)CCOc1cc(-c2cn[nH]c2)ccc1NC(=O)C1COc2ccccc2O1 (configuration not stated)
reported.measurement: 117

molecule: ClC1=C(N\C2=N\CCN2)C3=NSN=C3C=C1
reported.measurement: 117

molecule: CC(NC1=CC=CC=C1)C\2=C\C(=C/N3C(=O)\C=C(/N=C23)N4CCOCC4)C (configuration not stated)
reported.measurement: 110

molecule: NC(=O)c1cnc(N[C@@H]2CCCC[C@@H]2N)nc1Nc1cccc(-n2nccn2)c1
reported.measurement: 132

molecule: CC1(C)CC(=O)c2c(C(F)(F)F)nn(-c3ccc(C(N)=O)c(NC4CCC(O)CC4)c3)c2C1 (configuration not stated)
reported.measurement: 67.1

molecule: Cc1ccccc1N1C(=O)c2cc([S+](N)(=O)[O-])c(Cl)cc2NC1C (configuration not stated)
reported.measurement: 125

molecule: COc1cnc(N[S+](=O)([O-])c2ccc(N)cc2)nc1
reported.measurement: 125

molecule: COC1CCC(CC1)N(C(=O)C2CCC(C)CC2)C3=C(SC(=C3)\C4=C\CCCC4)C(O)=O (configuration not stated)
reported.measurement: 113

molecule: Cc1c(CN2CCN(C(=O)[C@H](C)O)CC2)sc2c(N3CCOCC3)nc(-c3cnc(N)nc3)nc12
reported.measurement: 99.8

molecule: CC(=O)Nc1ccc(OC[C@](C)(O)C(=O)Nc2ccc([N+](=O)[O-])c(C(F)(F)F)c2)cc1
reported.measurement: 89.1
